- system tested: VEGF (R&D systems, Minneapolis, Minn.) (UniProt P15692-4 27-191, limits assumed)
- Sequence (P15692 other isoform, or with tags, fused parts or gaps limits assumed): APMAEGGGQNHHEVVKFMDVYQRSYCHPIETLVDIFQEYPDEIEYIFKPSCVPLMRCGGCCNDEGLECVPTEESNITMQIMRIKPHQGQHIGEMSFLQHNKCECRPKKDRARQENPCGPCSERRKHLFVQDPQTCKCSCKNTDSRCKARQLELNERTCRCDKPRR
- assay details: BIAcore SPR, mutant/WT
measurement label: Δkon (fold)
Value expressed in fold; do not type the unit.

• 93 (antibody, human IgG1, V domains shown) VH: EVQLVESGGGLVQPGGSLRLSCAASGYTFTNYGMNWVRQAPGKGLEWVGWINTYTGEPTYAADFKRRFTFSLDTSKSTAYLQMNSLRAEDTAVYYCAKYPEYYGSSHWYFDVWGQGTLVTVSS VL: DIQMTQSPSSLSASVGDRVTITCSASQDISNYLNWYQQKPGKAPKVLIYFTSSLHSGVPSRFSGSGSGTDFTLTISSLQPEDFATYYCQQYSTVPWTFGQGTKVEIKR = 1.6

Query binder follows.
Notebook: 85 (antibody, human IgG1, V domains shown) VH: EVQLVESGGGLVQPGGSLRLSCAASGYTFTFYGMNWVRQAPGKGLEWVGWINTYTGEPTYAADFKRRFTFSLDTSKSTAYLQMNSLRAEDTAVYYCAKYPEYEGSSHWYFDVWGQGTLVTVSS VL: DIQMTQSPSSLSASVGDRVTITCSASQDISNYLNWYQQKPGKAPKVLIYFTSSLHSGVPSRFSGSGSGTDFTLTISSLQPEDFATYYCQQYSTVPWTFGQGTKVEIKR , Δkon read as 6.9
